Values were extracted from patent US9181233B2.

A short record of pIC50 observed with hQC (Homo sapiens (Human)) follows.
Sequence (Q16769 29-361): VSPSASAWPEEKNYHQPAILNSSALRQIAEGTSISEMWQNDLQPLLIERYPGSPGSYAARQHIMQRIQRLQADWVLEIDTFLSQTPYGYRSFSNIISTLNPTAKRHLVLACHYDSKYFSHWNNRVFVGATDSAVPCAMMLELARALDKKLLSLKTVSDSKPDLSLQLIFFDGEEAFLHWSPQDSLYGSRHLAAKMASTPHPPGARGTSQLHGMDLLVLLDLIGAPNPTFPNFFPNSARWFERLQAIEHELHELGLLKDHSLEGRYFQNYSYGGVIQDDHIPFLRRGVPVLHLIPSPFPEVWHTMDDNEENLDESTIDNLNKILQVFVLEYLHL
pIC50: −log10 of the molar value.
parameter measured: pIC50

>>> df
                                     smiles  observed_value
0  COc1cc(CCc2nnc(-c3ccc4[nH]cnc4c3)s2)cc(OC)c1OC            6.31
1  COc1cccc(CCc2nnc(-c3ccc4[nH]cnc4c3)s2)c1            6.35
2   Fc1cccc(CCc2nnc(-c3ccc4[nH]cnc4c3)s2)c1            6.25
3    COc1ccccc1CCc1nnc(-c2ccc3[nH]cnc3c2)s1            6.12
4  c1ccc(Oc2ccc(Cn3cnnc3-c3ccc4[nH]cnc4c3)cc2)cc1            6.32
5  Fc1ccc(CCc2nnc(-c3ccc4[nH]cnc4c3)s2)cc1F            6.14
6       Clc1ccccc1Cn1cnnc1-c1ccc2[nH]cnc2c1            6.12
7    c1ccc(SCn2cc(-c3ccc4[nH]cnc4c3)nn2)cc1            6.24
8  COc1ccc(CCc2nnc(-c3ccc4[nH]cnc4c3)o2)cc1Cl            6.10
9  COc1cccc(CCc2nnc(-c3ccc4[nH]cnc4c3)s2)c1Cl            6.66
